Reported MIC values are given for each entry in this list.
Test system: Bacillus Calmette-Guérin (BCG)
assay_summary: organism not typed
Format: cell-based, Mycobacterium bovis
measurement_conditions: read-out: MIC from in vitro validation on BCG
// return numeric value only (unit: µg/mL, not printed)

Worked examples follow.
molecule	tested_on	measurement_units	MIC
CO[C@@H]1[C@@H](OC(=O)c2ccc(C)[nH]2)[C@@H](O)[C@H](Oc2ccc3c(O)c(NC(=O)c4ccc(O)c(CC=C(C)C)c4)c(=O)oc3c2Cl)OC1(C)C	Bacillus Calmette-Guérin (BCG)	µg/mL	0.625
c1ccc2cc(OCCOCCOc3ccc4ccccc4c3)ccc2c1	Bacillus Calmette-Guérin (BCG)	µg/mL	80
O=C(Nc1ccc(Oc2ccc(NC(=O)Nc3ccccc3Cl)cc2)cc1)Nc1ccccc1Cl	Bacillus Calmette-Guérin (BCG)	µg/mL	80
O=C(Nc1cccc(-c2nc3ccccc3[nH]2)c1)c1ccc(C(=O)Nc2cccc(-c3nc4ccccc4[nH]3)c2)cc1	Bacillus Calmette-Guérin (BCG)	µg/mL	40
O=[N+]([O-])c1ccc(C2CC(c3ccccc3)=Nc3ccccc3S2)cc1 (stereo not drawn)	Bacillus Calmette-Guérin (BCG)	µg/mL	5

Kindly consider the entry below.
Short answer please: MIC, Bacillus Calmette-Guérin (BCG), entry `Cn1ccc(=Nc2ccc(NC(=O)c3ccc(N=c4ccn(C)c5ccc([N+](=O)[O-])cc45)cc3)cc2)cc1`
0.078

====

assay_summary: MTT cytotoxicity assay
measurement_conditions: human
observable: IC50 (µg/mL)
Response body: numeric value in µg/mL, unit text excluded.

What does the data say about its IC50? Entry: CO[C@H]1/C=C/O[C@@]2(C)Oc3c(C)c(O)c4c(O)c(c(/C=N/N5CCN(C)CC5)c(O)c4c3C2=O)NC(=O)/C(C)=C\C=C\[C@H](C)[C@H](O)[C@@H](C)[C@@H](O)[C@@H](C)[C@H](OC(C)=O)[C@@H]1C [Rifampicin, reference compound]
1

====

assay_summary: in vitro
measurement_conditions: human
observable: IC50 (µg/mL)
Numbers only; they are read as µg/mL.

Tell me the measured IC50 of `Cn1ccc(=Nc2ccc(NC(=O)c3ccc(N=c4ccn(C)c5ccc([N+](=O)[O-])cc45)cc3)cc2)cc1` , please.
7.5
